Listed here are compounds together with their documented Ki.
Target: Sigma-1 receptor (Homo sapiens)
Construct: to the Sigma-1 receptor (Sigma-1R) of human-derived Jurkat cells; host or cells: Jurkat cells
Sequence (Q99720 whole entry): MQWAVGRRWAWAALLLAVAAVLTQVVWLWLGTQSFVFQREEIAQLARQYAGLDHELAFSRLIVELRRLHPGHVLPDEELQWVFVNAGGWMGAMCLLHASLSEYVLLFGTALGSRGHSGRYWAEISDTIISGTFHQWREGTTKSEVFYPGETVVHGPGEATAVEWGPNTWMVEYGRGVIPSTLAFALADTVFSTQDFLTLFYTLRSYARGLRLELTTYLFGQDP
Test: Sigma 1 receptor radioligand binding (3H-pentazocine, Jurkat cells)
Number in µM, nothing else.

CN1CC[C@@]23CCCC[C@@H]2[C@@H]1Cc1ccc(O)cc13 [DX, dextrorphan, reference compound] | 2.85

Here's the next entry for you.
Notebook: COc1ccc2c(c1)[C@]13CCCC[C@@H]1[C@H](C2)N(C)CC3 [DM, dextromethorphan] , Ki read as 1.67

====

Target: norepinephrine transporter (Homo sapiens)
Construct: purchased PerkinElmer, Inc RBHNETM400UA
Sequence (P23975 whole entry): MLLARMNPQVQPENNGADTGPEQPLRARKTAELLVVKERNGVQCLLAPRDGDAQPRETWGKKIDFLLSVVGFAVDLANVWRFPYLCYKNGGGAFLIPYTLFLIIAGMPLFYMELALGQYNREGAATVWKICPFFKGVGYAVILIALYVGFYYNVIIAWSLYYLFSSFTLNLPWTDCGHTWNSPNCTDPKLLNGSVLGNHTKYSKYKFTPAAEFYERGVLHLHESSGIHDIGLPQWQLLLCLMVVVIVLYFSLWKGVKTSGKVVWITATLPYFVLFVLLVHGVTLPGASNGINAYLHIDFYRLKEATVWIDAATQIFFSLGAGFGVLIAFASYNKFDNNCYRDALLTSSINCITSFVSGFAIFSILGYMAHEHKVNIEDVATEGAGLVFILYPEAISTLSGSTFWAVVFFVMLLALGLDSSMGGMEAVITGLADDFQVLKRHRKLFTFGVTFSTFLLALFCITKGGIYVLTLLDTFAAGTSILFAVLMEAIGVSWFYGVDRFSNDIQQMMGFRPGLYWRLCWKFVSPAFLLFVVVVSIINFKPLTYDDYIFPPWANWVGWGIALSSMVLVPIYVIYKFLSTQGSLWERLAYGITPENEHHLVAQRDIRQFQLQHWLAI
Experiment: Norepinephrine transporter (NET) radioligand binding (3H-Nisoxetine)
measuredProperty: Ki (µM)
// note: answer is a bare numeric in µM

COc1ccc2c(c1)[C@]13CCCC[C@@H]1[C@H](C2)N(C)CC3 | 20.5

# next compound below
The recorded Ki for CN1CC[C@@]23CCCC[C@@H]2[C@@H]1Cc1ccc(O)cc13 [DX, dextrorphan, reference compound] is 5.67

====

Assay: Pharmacokinetics in male SD rat after oral administration
Format: in vivo
Details: male, SD, rat, in vivo, po, 50 mg/kg; read-out: Cmax
measuredProperty: Cmax (ng/mL)
Reply with just the number (in ng/mL).

The reported value for COc1ccc2c(c1)[C@]13CCCC[C@@H]1[C@H](C2)N(C)CC3 in terms of Cmax is 56

====

Assay: Pharmacokinetic study in C57BL/6 mice
Format: in vivo
Conditions: male, C57BL/6, mouse, plasma, po, 20 mg/kg
measuredProperty: AUC(0-t)
Be sure to follow the number with its unit.

// sample COc1ccc2c(c1)[C@]13CCCC[C@@H]1[C@H](C2)N(C)CC3 , its AUC(0-t) was 184 ng·h/mL

====

Target: NMDA receptor
Conditions: read-out: Ki, NMDA receptor; 3H-MK801 competition, rat brain membranes, mean, n = 4
measuredProperty: Ki (nM)
# value in nM; strip the unit string

Recorded Ki (compound CN1CC[C@@]23CCCC[C@@H]2[C@@H]1Cc1ccc(O)cc13 [DX, dextrorphan, reference compound] ): 220

====

Target: serotonin transporter (Homo sapiens)
Sequence (P31645 whole entry): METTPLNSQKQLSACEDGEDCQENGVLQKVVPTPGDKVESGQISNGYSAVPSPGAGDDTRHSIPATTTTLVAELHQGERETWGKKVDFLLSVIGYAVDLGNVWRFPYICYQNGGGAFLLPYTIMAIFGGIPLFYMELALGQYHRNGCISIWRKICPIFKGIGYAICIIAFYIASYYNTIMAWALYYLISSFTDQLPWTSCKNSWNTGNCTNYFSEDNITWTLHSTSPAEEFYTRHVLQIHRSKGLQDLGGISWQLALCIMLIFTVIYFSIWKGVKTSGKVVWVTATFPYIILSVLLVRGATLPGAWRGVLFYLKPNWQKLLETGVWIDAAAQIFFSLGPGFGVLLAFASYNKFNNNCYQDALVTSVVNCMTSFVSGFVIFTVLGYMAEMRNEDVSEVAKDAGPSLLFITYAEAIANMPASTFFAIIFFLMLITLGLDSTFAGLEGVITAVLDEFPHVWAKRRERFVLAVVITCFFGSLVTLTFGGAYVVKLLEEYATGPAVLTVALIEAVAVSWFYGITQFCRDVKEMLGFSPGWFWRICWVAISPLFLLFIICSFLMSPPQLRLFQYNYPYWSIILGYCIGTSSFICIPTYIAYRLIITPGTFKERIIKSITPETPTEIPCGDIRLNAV
measuredProperty: Ki (µM)
Dear colleague, please return just the value in µM, with no unit written.

Response field Ki (serotonin transporter (Homo sapiens)) for item CN1CC[C@@]23CCCC[C@@H]2[C@@H]1Cc1ccc(O)cc13 [DX, dextrorphan, reference compound] : 0.14

====

Assay: Metabolic stability in liver microsomes
Assay type: in vitro ADME, human
Settings: 1 μM, 0.5 mg/mL human liver microsomes, NADPH 1 mM, 37°C, mean, n = 2
measuredProperty: half-life at 1 μM (h)
The figure you give is taken to be in h; do not add the unit.

Briefly, half-life at 1 μM measured for COc1ccc2c(c1)[C@]13CCCC[C@@H]1[C@H](C2)N(C)CC3 : 1.24

====

Assay: Pharmacokinetics in male SD rat after oral administration
Assay type: in vivo
Details: male, SD, rat, in vivo, po, 50 mg/kg
measuredProperty: AUC(0-t) (ng·h/mL)
Provide the reading as a plain figure in ng·h/mL.

AUC(0-t) reported for this molecule COc1ccc2c(c1)[C@]13CCCC[C@@H]1[C@H](C2)N(C)CC3 : 194
